# Lookup of reported pKd keyed by entry
# Measurement target: taste bud P4(B) subfractions
# Assay protocol: Specific binding: competition of 14C sugars or SSS with unlabeled homologous and heterologous sugars, Scatchard analysis
# Parameters: species or system bovine
# Condition info: non-linear Scatchard plot, secondary class of binding sites; mean ± 1 SEM; read-out: Kd (dissociation constant), K2
Reminder that pKd is minus the log10 of a molar concentration.

1. O=S(=O)(O)NC1CCCCC1 [CYCLAMATE, cyclamate] | 1.49

Please examine the following record next.
Quick one: give measured pKd for O=C1NS(=O)(=O)c2ccccc21 1.18

Values from patent US4146501A
